Source: patent US20200308301A1

Measured TGA percentage reversal, NOV1401/anti NOV1401 ratio 1/3 (n/n), listed per entry for reference.
Molecular target: NOV1401; note: test concentration or dose not given here
Sequence (VL, as listed by the source): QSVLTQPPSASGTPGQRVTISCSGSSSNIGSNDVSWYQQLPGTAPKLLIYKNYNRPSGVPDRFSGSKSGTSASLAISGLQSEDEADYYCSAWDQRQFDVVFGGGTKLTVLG
Experiment: cell-based or functional assay
Return type: number; implicit unit %.

Worked set:
[[record]]
binder = "IDT5 (Fab, V domains shown, Fab; also called anti-NOV1401 Fab IDT5) VH: QVQLVESGGGLVKPGGSLRLSCAASGFTFSSAAVHWVRQAPGKGLEWVGRIKSKADAGTTDYAAPVKGRFTISRDDSKNTLYLQMNSLKTEDTAVYYCARDSPSISSYSIPYFSGMDVWGQGTLVTVSS VL: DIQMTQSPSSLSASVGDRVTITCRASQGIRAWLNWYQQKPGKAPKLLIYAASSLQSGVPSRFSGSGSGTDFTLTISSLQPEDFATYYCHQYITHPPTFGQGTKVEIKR"
unitname = "%"
assayvalue = 56

[[record]]
binder = "IDT11 (antibody, human IgG1, kappa, V domains shown, also called anti-NOV1401 IgG IDT11; full length IgG format for IDT1) VH: QVQLLESGGGLVQPGGSLRLSCAASGFTFSDYAMSWVRQAPGKGLEWVSVIDYSSSNTYYADSVKGRFTISRDNSKNTLYLQMNSLRAEDTAVYYCAREGYSYRSIRFDYWGQGTLVTVSS VL: DIQMTQSPSSLSASVGDRVTITCRASQSISSNLNWYQQKPGKAPKLLIYAASNLQSGVPSRFSGSGSGTDFTLTISSLQPEDFATYYCLQFDHTPFTFGQGTKVEIKR"
unitname = "%"
assayvalue = 59

[[record]]
binder = "IDT2 (Fab, V domains shown, Fab; also called anti-NOV1401 Fab IDT2) VH: QVQLVESGGGLVKPGGSLRLSCAASGFTFSSAAVHWVRQAPGKGLEWVGRIKSKADGGTTDYAAPVKGRFTISRDDSKNTLYLQMNSLKTEDTAVYYCARDSPSISSYSIPYFSGMDVWGQGTLVTVSS VL: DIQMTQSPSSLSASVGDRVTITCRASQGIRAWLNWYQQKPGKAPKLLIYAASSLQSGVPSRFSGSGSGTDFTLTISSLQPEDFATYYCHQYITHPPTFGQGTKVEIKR"
unitname = "%"
assayvalue = 57

[[record]]
binder = "IDT7 (Fab, V domains shown, Fab; also called anti-NOV1401 Fab IDT7) VH: QVQLVESGGGLVKPGGSLRLSCAASGFTFSSNAMHWVRQAPGKGLEWVGRIKSKTDGGTTDYAAPVKGRFTISRDDSKNTLYLQMNSLKTEDTAVYYCARDHYYYPFAYWGQGTLVTVSS VL: DIQMTQSPSSLSASVGDRVTITCRASQSIRYNLAWYQQKPGKAPKLLIYAASSLQSGVPSRFSGSGSGTDFTLTISSLQPEDFATYYCHQYIAKPITFGQGTKVEIKR"
unitname = "%"
assayvalue = 66


Attention now turns to another entry.
Looking up IDT8 (Fab, V domains shown, Fab; also called anti-NOV1401 Fab IDT8) VH: QVQLVESGGGLVKPGGSLRLSCAASGFTFSSNAMHWVRQAPGKGLEWVGRIKSKTSGGTTDYAAPVKGRFTISRDDSKNTLYLQMNSLKTEDTAVYYCARDHYYYPFAYWGQGTLVTVSS VL: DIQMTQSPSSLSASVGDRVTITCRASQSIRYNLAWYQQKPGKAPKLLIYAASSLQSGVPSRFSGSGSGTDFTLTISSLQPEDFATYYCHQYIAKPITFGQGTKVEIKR , I see its TGA percentage reversal, NOV1401/anti NOV1401 ratio 1/3 (n/n) listed as 56
